Reference source: patent US20130131116A1

Rule: melting point of 100 °C or more gives yes; anything lower gives no.

Q: Does the molecule O=C(NNc1cc(C2=NOC(c3cc(Cl)cc(Cl)c3)(C(F)(F)F)C2)ccc1Cl)c1ccncc1 (centres unmarked) have recorded melting point that is 100 °C or more?
A: yes

Q: Record CC(=O)N(C)N(C(=O)OC(C)(C)C)c1cccc(C2=NOC(c3cc(Cl)cc(Cl)c3)(C(F)(F)F)C2)c1 (centres unmarked) ; criterion: melting point no lower than 100 °C. Met?
A: no

Q: # bool: melting point of CC(=O)NNc1cc(C2=NOC(c3cc(Cl)cc(Cl)c3)(C(F)(F)F)C2)ccc1Cl (centres unmarked) >= 100 °C
A: no

Q: Dear colleague, could you confirm whether FC(F)(F)C1(c2cc(Cl)cc(Cl)c2)CC(c2ccc(Cl)c(NNC(=S)NC3CCCCC3)c2)=NO1 (centres unmarked) has melting point at or above 100 °C?
A: yes

Q: Could you please find out whether COCC(=O)NN(C(C)=O)c1cc(C2=NOC(c3cc(Cl)cc(Cl)c3)(C(F)(F)F)C2)ccc1Cl (centres unmarked) has melting point that meets 100 °C or exceeds it?
A: yes

Q: API: above_or_equal(metric=melting point, cutoff=100 °C) for item O=C(NNc1cc(C2=NOC(c3cc(Cl)cc(Cl)c3)(C(F)(F)F)C2)ccc1Cl)c1ccccc1 (centres unmarked)
A: yes

Q: Is the recorded value of melting point equal to or greater than 100 °C for this molecule? O=C(NN(C(=O)c1ccccc1)c1cc(C2=NOC(c3cc(Cl)cc(Cl)c3)(C(F)(F)F)C2)ccc1Cl)C1CC1 (centres unmarked)
A: yes
